All values here come from paper PMC3517065.

- assay_procedure: MTT-based cell viability assay
- experimental_conditions: human, HeLa cells
I'd be grateful if you could share measured CC50 at 72 h for these entries.

Provide CC50 at 72 h values for the following items, in order.
1. COc1ccccc1C(=O)Nc1ccccc1Oc1ccc(OC(C)=O)cc1 [32k]
2. COC(=O)c1ccc(COc2ccccc2NC(=O)c2ccccc2OC)cc1 [45k]
3. COc1ccccc1S(=O)(=O)Nc1ccccc1Sc1ccc(N)cc1

1: > 100 µM; 2: > 100 µM; 3: 65 µM

I would be grateful if you could provide CC50 at 72 h for each of the following entries.
1. COc1ccccc1CC(=O)Nc1ccccc1Sc1ccc([N+](=O)[O-])cc1
2. COc1ccccc1NC(=O)c1ccccc1OCc1cccc([N+](=O)[O-])c1 [41j]
3. O=C(Nc1ccccc1CO)c1ccccc1Oc1ccc([N+](=O)[O-])cc1 [18e]
4. COc1ccccc1NS(=O)(=O)c1ccccc1Sc1ccc(N)cc1
5. COc1ccccc1NC(=O)c1ccccc1Oc1ccc2c(c1)OCO2 [23h]

> 100 µM
> 100 µM
25 µM
> 100 µM
> 100 µM
